Molecular target: T1, human MSR1 extracellular domain expressed with a N-terminal nonahistidine tag (His9-hMSR1); R&D Systems, Cat … (human, UniProt P21757 77-451)
T1 construct: extracellular domain; also called His-hMSR1; 9xHis-hMSR1; not shown: N-terminal nonahistidine tag
T1 sequence (looked up): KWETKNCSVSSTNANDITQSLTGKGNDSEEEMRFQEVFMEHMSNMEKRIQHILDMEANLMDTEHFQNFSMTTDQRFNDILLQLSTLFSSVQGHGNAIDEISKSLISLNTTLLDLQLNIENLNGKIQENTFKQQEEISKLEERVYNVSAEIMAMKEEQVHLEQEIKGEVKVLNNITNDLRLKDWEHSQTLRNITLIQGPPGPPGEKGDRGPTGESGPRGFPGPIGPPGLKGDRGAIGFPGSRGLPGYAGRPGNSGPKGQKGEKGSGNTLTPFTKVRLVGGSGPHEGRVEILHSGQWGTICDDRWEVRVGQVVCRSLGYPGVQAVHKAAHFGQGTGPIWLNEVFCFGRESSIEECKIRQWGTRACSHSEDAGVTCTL
Experiment: SPR Biacore, 37 C, antibody captured
# Lookup of reported koff keyed by entry
Form entry: value (s⁻¹) — number only.

Observe how each entry below is paired with its result.
{"BINDER": "H1H27731P-N297Q (antibody, V domains shown, Human IgG1 Fc with N297Q point mutation) VH: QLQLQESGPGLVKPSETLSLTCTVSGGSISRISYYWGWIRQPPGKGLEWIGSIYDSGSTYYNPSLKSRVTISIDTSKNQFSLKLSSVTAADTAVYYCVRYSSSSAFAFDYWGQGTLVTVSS VL: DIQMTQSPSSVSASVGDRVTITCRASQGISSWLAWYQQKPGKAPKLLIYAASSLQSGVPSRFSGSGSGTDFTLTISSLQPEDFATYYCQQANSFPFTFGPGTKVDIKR", "UNITS_LABEL": "s⁻¹", "koff": 0.000132}
{"BINDER": "H1H27739P-N297Q (antibody, V domains shown, Human IgG1 Fc with N297Q point mutation) VH: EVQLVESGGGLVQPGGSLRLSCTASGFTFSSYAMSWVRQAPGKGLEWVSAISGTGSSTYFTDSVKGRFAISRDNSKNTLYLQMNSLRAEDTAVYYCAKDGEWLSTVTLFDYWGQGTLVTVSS VL: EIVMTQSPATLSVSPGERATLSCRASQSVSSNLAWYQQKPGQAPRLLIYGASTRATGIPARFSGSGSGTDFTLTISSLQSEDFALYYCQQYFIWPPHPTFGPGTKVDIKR", "UNITS_LABEL": "s⁻¹", "koff": 0.00288}

Now for another entry.
The binder identified as H1H27747P-N297Q (antibody, V domains shown, Human IgG1 Fc with N297Q point mutation) VH: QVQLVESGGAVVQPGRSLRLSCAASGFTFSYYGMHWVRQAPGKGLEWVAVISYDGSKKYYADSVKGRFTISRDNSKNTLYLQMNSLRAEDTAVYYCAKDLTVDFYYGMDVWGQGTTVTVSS VL: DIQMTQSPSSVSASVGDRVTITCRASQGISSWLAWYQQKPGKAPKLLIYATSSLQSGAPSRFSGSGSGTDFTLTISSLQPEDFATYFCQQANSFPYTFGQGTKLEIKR registered its koff at 0.00276
